Data origin, for the record: patent US10774071B2

Target: PD-L1 (Homo sapiens (Human), UniProt Q9NZQ7)
Sequence (Q9NZQ7 19-238): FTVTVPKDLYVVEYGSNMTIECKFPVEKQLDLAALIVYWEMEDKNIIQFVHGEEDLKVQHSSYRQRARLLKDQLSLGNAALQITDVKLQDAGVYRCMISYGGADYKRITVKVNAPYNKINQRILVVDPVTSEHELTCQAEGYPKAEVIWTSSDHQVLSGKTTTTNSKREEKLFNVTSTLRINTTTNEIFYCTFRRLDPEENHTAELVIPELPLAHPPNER
Sequence (Q9NZQ7 19-238): as above
Assay: PD-L1/PD-L1 dimerization biochemical protein-protein interaction assay (ALPHA)
Assay type: binding
Conditions: 0.5 nM His tagged PD-L1 and 0.5 nM FLAG tagged PD-L1, Table 4B, read-out: AC50 PDL1 Dimer 1 nM
Parameter: AC50. Scope: all listed entries.

Field: example entries. Status: answers known.
• COc1nc(-c2cccc(-c3cccc4c3CC[C@@H]4Oc3nc(OC)c(CN4CCCC(C(=O)O)CC4)cc3Cl)c2Cl)ccc1CNC[C@@H]1CCC(=O)N1 (stereo partly drawn) = 17.9 nM
• COc1nc(-c2cccc(-c3cccc4c3CC[C@@H]4Oc3nc(OC)c(CN[C@H](C(=O)O)C4CC4)cc3C(F)(F)F)c2Cl)ccc1CNC[C@@H]1CCC(=O)N1 = 3.76 nM
• COc1nc(-c2cccc(-c3cccc4c3CC[C@@H]4Oc3nc(OC)c(CN4CCC(NC(C)=O)C4)cc3Cl)c2Cl)ccc1CNC[C@@H]1CCC(=O)N1 (stereo partly drawn) = 40.5 nM

Query COc1nc(-c2cccc(-c3cccc4c3CC[C@@H]4Oc3nc(OC)c(CN4CC[C@@H](C(=O)O)C4)cc3C(F)(F)F)c2Cl)ccc1CN[C@H]1C[C@](C)(O)C1 yields AC50 of 17.5 nM

Query COc1nc(-c2cccc(-c3cccc4c3CC[C@@H]4Oc3nc(OC)c(CN4CC[C@@H](C(=O)N=S(C)(=O)NCC(F)(F)F)C4)cc3Cl)c2Cl)ccc1CNC[C@@H]1CCC(=O)N1 (stereo partly drawn) yields AC50 of 41.2 nM

Query COc1nc(-c2cccc(-c3cccc4c3CC[C@@H]4Oc3nc(OC)c(CN4CC[C@@H](C(=O)O)C4)cc3Cl)c2C)ccc1CNC[C@@H]1CCC(=O)N1 yields AC50 of 57.9 nM

###

Parameter: IC50. Scope: all listed entries.
Target: PD-1/PD-L1 (Homo sapiens (Human), UniProt Q9NZQ7)
Assay: PD-1/PD-L1 biochemical protein-protein interaction assay (ALPHA)
Format: binding
Details: 0.3 nM His tagged PD-L1, 2.5 nM biotinylated Fc-PD-1, Table 3B, read-out: IC50 PD-L1-PD1
Please respond with the number in nM and leave the unit unwritten.

Field: example entries. Status: answers known.
- COc1nc(-c2cccc(-c3cccc4c3CC[C@@H]4Oc3nc(OC)c(CN4C[C@H](C)C[C@H]4C(=O)O)cc3Cl)c2Cl)ccc1CNC[C@@H]1CCC(=O)N1 [B-185]: 0.064
- COc1nc(-c2cccc(-c3cccc4c3CC[C@@H]4Oc3nc(OC)c(CN4CC(C(=O)O)C4)nc3C)c2Cl)ccc1CNC[C@@H]1CCC(=O)N1 [B-148]: 0.064

Next compound, IC50 to be filled in.
Query COc1cc(O[C@H]2CCc3c(-c4cccc(-c5ccc(CNC[C@@H]6CCC(=O)N6)c(OC)n5)c4Cl)cccc32)c(C(F)(F)F)cc1CN1CC[C@H](C(=O)O)C1 [B-165] yields IC50 of 0.064

###

Parameter: AC50. Scope: all listed entries.
Target: PD-L1 (Homo sapiens (Human), UniProt Q9NZQ7)
Experiment: PD-L1/PD-L1 dimerization biochemical protein-protein interaction assay (ALPHA)
Format: binding
Conditions: 0.5 nM His tagged PD-L1 and 0.5 nM FLAG tagged PD-L1, Table 4B, read-out: AC50 PDL1 Dimer 1 nM
Reply with the number, then its unit.

* COc1nc(-c2cccc(-c3cccc4c3CC[C@@H]4Oc3nc(OC)c(CN4C[C@@H]5C[C@]5(C(=O)O)C4)cc3C(F)(F)F)c2Cl)ccc1CNC[C@@H]1CCC(=O)N1 | 17.5 nM
* COc1nc(-c2cccc(-c3cccc4c3CC[C@@H]4Oc3nc(OC)c(CN4CCC(C)(C)[C@H]4C(=O)O)cc3Cl)c2Cl)ccc1CNC[C@@H]1CCC(=O)N1 | 25.1 nM

Query COc1nc(O[C@H]2CCc3c(-c4cccc(-c5cnc(CNC[C@@H]6CCC(=O)N6)c(OC)n5)c4Cl)cccc32)c(C(F)(F)F)cc1CNC1(C(=O)O)CC1 yields AC50 of 5.32 nM

###

Target: PD-L1 (Homo sapiens (Human))
Test: PD-L1/PD-L1 dimerization biochemical protein-protein interaction assay (ALPHA)
Format: binding
Details: 0.5 nM His tagged PD-L1 and 0.5 nM FLAG tagged PD-L1, Table 4B, read-out: AC50 PDL1 Dimer 1 nM
Parameter: AC50. Scope: all listed entries.
Reply with the number, then its unit.

Field: example entries. Status: answers known.
* COc1nc(-c2cccc(-c3cccc4c3CC[C@@H]4Oc3nc(OC)c(CN4CC[C@@H](C(=O)N=S(C)(=O)NC(C)=O)C4)cc3Cl)c2Cl)ccc1CNC[C@@H]1CCC(=O)N1 (stereo partly shown) [B-163] | 0.0391 µM
* COc1nc(-c2cccc(-c3cccc4c3CC[C@@H]4Oc3nc(OC)c(CNCC(=O)N(C)C)cc3C(F)(F)F)c2Cl)ccc1CNC[C@@H]1CCC(=O)N1 [B-248] | 0.0159 µM
* COc1cc(O[C@H]2CCc3c(-c4cccc(-c5ccc(CNC[C@@H]6CCC(=O)N6)c(OC)n5)c4Cl)cccc32)c(Cl)cc1CN1CC[C@H](C(=O)O)C1 [B-167] | 0.0516 µM
* COc1nc(O[C@H]2CCc3c(-c4cccc(-c5cc(C)c(CNC[C@@H]6CCC(=O)N6)c(OC)n5)c4Cl)cccc32)c(C)cc1CNC1(C(=O)O)CC1 [B-244] | 0.018 µM

Query COc1nc(-c2cccc(-c3cccc4c3CC[C@@H]4Oc3nc(OC)c(CN4C[C@H]5C[C@@]5(C(=O)O)C4)cc3C(F)(F)F)c2Cl)ccc1CNC[C@@H]1CCC(=O)N1 [B-198] yields AC50 of 0.0153 µM

Query COc1nc(O[C@H]2CCc3c(-c4cccc(-c5cc(F)c(CNC[C@@H]6CCC(=O)N6)c(OC)n5)c4Cl)cccc32)c(C(F)(F)F)cc1CN1CC[C@H](C(=O)O)C1 [B-188] yields AC50 of 0.012 µM

Query COc1nc(-c2cccc(-c3cccc4c3CC[C@@H]4Oc3nc(OC)c(CN4C[C@@H]5CC[C@]5(C(=O)O)C4)cc3Cl)c2Cl)ccc1CNC[C@@H]1CCC(=O)N1 [B-93] yields AC50 of 0.055 µM

Query CNC(=O)C1CCN(Cc2cc(Cl)c(O[C@H]3CCc4c(-c5cccc(-c6ccc(CN7CC(C)(O)C7)c(OC)n6)c5Cl)cccc43)nc2OC)C1 (stereo partly shown) [B-86] yields AC50 of 0.109 µM

Query COc1nc(-c2cccc(-c3cccc4c3CC[C@@H]4Oc3nc(OC)c(CN4[C@@H]5C[C@@H]5C[C@H]4C(=O)O)cc3C(F)(F)F)c2Cl)ccc1CNC[C@@H]1CCC(=O)N1 [B-136] yields AC50 of 0.011 µM

Query COc1nc(-c2cccc(-c3cccc4c3CC[C@@H]4Oc3nc(OC)c(CN4CC[C@@H](C(=O)NS(C)(=O)=O)C4)cc3Cl)c2Cl)ccc1CNC[C@@H]1CCC(=O)N1 [B-113] yields AC50 of 0.0299 µM

Query COc1nc(-c2cccc(-c3cccc4c3CC[C@@H]4Oc3nc(OC)c(CN4CC5CCC4(C(=O)O)CC5)cc3C(F)(F)F)c2Cl)ccc1CNC[C@@H]1CCC(=O)N1 [B-134] yields AC50 of 0.000727 µM

Query COc1nc(-c2cccc(-c3cccc4c3CC[C@@H]4Oc3nc(OC)c(CNC(C)(C)C(=O)O)cc3C(F)(F)F)c2Cl)ccc1CN[C@H]1C[C@](C)(O)C1 [B-1] yields AC50 of 0.00111 µM

Query COc1nc(O[C@H]2CCc3c(-c4cccc(-c5ccc(CNC[C@@H]6CCC(=O)N6)c(OCC#N)n5)c4Cl)cccc32)c(C(F)(F)F)cc1CNC1(C(=O)O)CC1 [B-125] yields AC50 of 0.00679 µM

Query COc1nc(-c2cccc(-c3cccc4c3CC[C@@H]4Oc3nc(OC)c(CN4CC(C)(O)C4)cc3C(F)(F)F)c2Cl)ccc1CNC[C@@H]1CCC(=O)N1 [B-260] yields AC50 of 0.018 µM

Query COc1nc(-c2cccc(-c3cccc4c3CC[C@@H]4Oc3nc(OC)c(CN4CCC(C)(C)C(C(=O)O)C4)cc3Cl)c2Cl)ccc1CNC[C@@H]1CCC(=O)N1 (stereo partly shown) [B-25] yields AC50 of 0.0178 µM

Query COc1nc(-c2cccc(-c3cccc4c3CC[C@@H]4Oc3nc(OC)c(CN[C@H](C(=O)O)C(C)C)cc3C(F)(F)F)c2Cl)ccc1CNC[C@@H]1CCC(=O)N1 [B-270] yields AC50 of 0.00476 µM

Query COc1nc(-c2cccc(-c3cccc4c3CC[C@@H]4Oc3nc(OC)c(CN4CC(C(=O)O)C4)cc3Cl)c2C#N)ccc1CNC[C@@H]1CCC(=O)N1 [B-74] yields AC50 of 0.0941 µM

Query COc1nc(-c2cccc(-c3cccc4c3CC[C@@H]4Oc3nc(OC)c(CNC[C@@H]4CCC(=O)N4)nc3Br)c2Cl)cnc1CNC[C@@H]1CCC(=O)N1 [B-38] yields AC50 of 0.0465 µM

Query COc1nc(-c2cccc(-c3cccc4c3CC[C@@H]4Oc3nc(OC)c(CNC(C)(CO)C(=O)O)cc3C)c2Cl)ccc1CNC[C@@H]1CCC(=O)N1 (stereo partly shown) [B-240] yields AC50 of 0.0121 µM

Query COc1nc(-c2cccc(-c3cccc4c3CC[C@@H]4Oc3nc(OC)c(CN4CCC[C@@H]4C(=O)O)cc3C(F)(F)F)c2Cl)ccc1CNC[C@@H]1CCC(=O)N1 [B-6] yields AC50 of 0.00796 µM

Query COc1nc(-c2cccc(-c3cccc4c3CC[C@@H]4Oc3nc(OC)c(CN4CC5(C(=O)O)CCC4CC5)cc3C(F)(F)F)c2Cl)ccc1CNC[C@H]1C[C@](C)(O)C1 [B-209] yields AC50 of 0.0117 µM

Query CNC(=O)[C@H](C)NCc1cc(C(F)(F)F)c(O[C@H]2CCc3c(-c4cccc(-c5ccc(CNC[C@@H]6CCC(=O)N6)c(OC)n5)c4Cl)cccc32)nc1OC [B-249] yields AC50 of 0.0355 µM
